- System: RAW-Dual
- assay overview: NF-kB SEAP reporter activity, fold change vs agonist alone; cytotoxicity flag (confluency mask): not cytotoxic; higher = enhanced NF-kB activity
- condition set: agonist: ODN 1826 (TLR9) 0.5 ug/mL
In all, about 2,900 compounds were measured (“NF-kB SEAP reporter activity, fold change vs agonist alone”: median about 0.99, highest 2% from about 2.6 on). The entries come from a sample that favours the highest values as a whole.
readout label: NF-kB SEAP reporter activity
Kindly provide the number alone.

These solved cases illustrate the format of a correct answer.
molecule	NF-kB SEAP reporter activity
CN1CCN(S(=O)(=O)c2ccc(-c3cnc(N)c(C(=O)Nc4cccnc4)n3)cc2)CC1 (library stock concentration (final ~1000-fold dilution): 10 mM)	2.61
CNCc1ccc(-c2cc(-c3nc(-c4ccc(S(=O)(=O)C(C)C)cc4)cnc3N)on2)cc1 (library stock concentration (final ~1000-fold dilution): 10 mM)	0.943
Cc1cc2ncc(C(=O)NCC(C)(C)NCC(=O)N3CCCC3C#N)cn2n1 (stereo unspecified) (library stock concentration (final ~1000-fold dilution): 10 mM)	0.997

Item: Cl.NCCCCC(N)C(=O)O (stereo unspecified) (library stock concentration (final ~1000-fold dilution): 10 mM water) | NF-kB SEAP reporter activity: 1.11

For record Cc1ccccc1C(OCCN(C)C)c1ccccc1.Cl (stereo unspecified) (library stock concentration (final ~1000-fold dilution): 10 mM) the listed NF-kB SEAP reporter activity is 0.935

Briefly, NF-kB SEAP reporter activity measured for COc1ccc(C[C@@H]2c3cc(Oc4cc(C[C@@H]5c6cc(OC)c(OC)cc6CCN5C)ccc4O)c(OC)cc3CCN2C)cc1 (library stock concentration (final ~1000-fold dilution): 10 mM) : 0.182

Lookup result for COc1cc2c(cc1OC)C1CC(OC(=O)C(N)C(C)C)C(CC(C)C)CN1CC2.Cc1ccc(S(=O)(=O)O)cc1.Cc1ccc(S(=O)(=O)O)cc1 (stereo unspecified) (library stock concentration (final ~1000-fold dilution): 10 mM) ; measured NF-kB SEAP reporter activity: 0.207

Please fill in: NF-kB SEAP reporter activity reported for O.c1cnc2c(c1)ccc1cccnc12 (library stock concentration (final ~1000-fold dilution): 10 mM) = 1.17

Entry O=C(Nc1cc(C(F)(F)F)ccc1N1CCN(Cc2ccccn2)CC1)c1ccc(-c2ccncc2)o1 (library stock concentration (final ~1000-fold dilution): 10 mM) , NF-kB SEAP reporter activity reported as 0.731

Recorded result, O=C(O)c1ccc(O)c2ncccc12 (library stock concentration (final ~1000-fold dilution): 10 mM) , NF-kB SEAP reporter activity: 1.04

Given item CC(C)N(CCCNC(=O)Nc1ccc(C(C)(C)C)cc1)CC1OC(n2ccc3c(N)ncnc32)C(O)C1O (stereo unspecified) (library stock concentration (final ~1000-fold dilution): 10 mM) , the value recorded as its NF-kB SEAP reporter activity is 1.05

====

- System: RAW-Dual
- assay overview: NF-kB SEAP reporter activity, fold change vs agonist alone; higher = enhanced NF-kB activity
- condition set: library stock concentration (final ~1000-fold dilution): 10 mM; cytotoxicity flag (confluency mask): not cytotoxic; agonist: Imiquimod (TLR7) […]
Whole data set: some 2,900 compounds, median “NF-kB SEAP reporter activity, fold change vs agonist alone” near 0.99, cut for the highest 2% near 2.6. Shown is part of a subset that was picked to be rich in the highest values.
Attribute: NF-kB SEAP reporter activity
// keep it numeric: no unit symbol after the value

Here is how some molecules turned out for NF-kB SEAP reporter activity.
molecule	NF-kB SEAP reporter activity
Br.NC(=O)C(c1ccccc1)(c1ccccc1)C1CCN(CCc2ccc3c(c2)CCO3)C1 (centres undefined)	1.02
CO[C@H](c1c(NC(=O)Nc2cnc(-n3nccn3)c(Cl)c2)cnc2cc(Cl)nn12)[C@@H](C)OC	0.986
COc1ccc(-c2ccc3c(N4CCOCC4C)nc(N4CCOCC4C)nc3n2)cc1CO (centres undefined)	1.11
CCCOc1ccc(S(=O)(=O)NCCC2CCCN2C)cc1-c1nc(=O)c2c([nH]1)c(CCC)nn2C (centres undefined)	1.42
Cc1ccc([N+](=O)[O-])cc1S(=O)(=O)N(C)C	0.951
COc1cc2c(cc1OC)C1CC(OC(=O)C(N)C(C)C)C(CC(C)C)CN1CC2.Cc1ccc(S(=O)(=O)O)cc1.Cc1ccc(S(=O)(=O)O)cc1 (centres undefined)	1.07

The recorded NF-kB SEAP reporter activity for O=S(=O)(N=Cc1c(O)ccc2ccccc12)c1cccs1 is 0.768

// field: NF-kB SEAP reporter activity; key: CC1CNC(=O)c2cnn3ccc(nc23)NC(C)c2cc(F)ccc2O1 (centres undefined) ; value = 0.753

Lookup result for CCOC(=O)COc1ccc(/C=C2\SC(=S)NC2=O)cc1OC ; measured NF-kB SEAP reporter activity: 0.985

====

- Test system: RAW-Dual
- assay overview: NF-kB SEAP reporter activity, fold change vs agonist alone; cytotoxicity flag (confluency mask): not cytotoxic; higher = enhanced NF-kB activity
- condition set: agonist: LPS (TLR4) 0.1 ug/mL
The full ranking holds about 2,900 compounds; the median of “NF-kB SEAP reporter activity, fold change vs agonist alone” is about 0.99, and the highest 2% start at about 2.6. This excerpt belongs to a sample that is enriched for the highest values.
Listed here: items and their measured NF-kB SEAP reporter activity.

Examples with answers:
compound	NF-kB SEAP reporter activity
CS(=O)(=O)CCNCc1ccc(-c2ccc3ncnc(Nc4ccc(OCc5cccc(F)c5)c(Cl)c4)c3c2)o1 (library stock concentration (final ~1000-fold dilution): 10 mM)	2.56
COc1ccc2c(-c3ccc(O)c(C)c3)ccnc2c1 (library stock concentration (final ~1000-fold dilution): .1 mM)	1.1
CC1CNCCCN1S(=O)(=O)c1cccc2cncc(F)c12.Cl.O.O (stereo unspecified) (library stock concentration (final ~1000-fold dilution): 10 mM)	1.11
CC1=NN(c2ccc(C)c(C)c2)C(=O)/C1=N\Nc1cccc(-c2cccc(C(=O)O)c2)c1O.NCCO.NCCO (library stock concentration (final ~1000-fold dilution): 10 mM)	2.92
CC(C)c1c(-c2ccccc2)[nH]c2c(C#N)cnn2c1=O.Cl (library stock concentration (final ~1000-fold dilution): 10 mM)	0.8
Cc1cc(Nc2ncnc3ccc(-c4ccc(CNCCS(C)(=O)=O)o4)cc23)ccc1Oc1ccn2ncnc2c1 (library stock concentration (final ~1000-fold dilution): 10 mM)	2.19

Given item CC#CCn1c(N2CCCC(N)C2)nc2c1c(=O)n(Cc1nc(C)c3ccccc3n1)c(=O)n2C (stereo unspecified) (library stock concentration (final ~1000-fold dilution): 10 mM) , the value recorded as its NF-kB SEAP reporter activity is 1.31

The recorded NF-kB SEAP reporter activity for entry CCc1ccc(NC(=O)Nc2c[nH]c3ccccc23)cc1 (library stock concentration (final ~1000-fold dilution): 1 mM) equals 0.445

# compound CN(CC(=O)N(Cc1ccc(C2CCCCC2)cc1)c1ccc(C(=O)NO)cc1)S(=O)(=O)c1c(F)c(F)c(F)c(F)c1F (library stock concentration (final ~1000-fold dilution): 10 mM) ; its NF-kB SEAP reporter activity = 0.324

Lab note: Cc1nc2ccc(CN(C)c3ccc(C(=O)NC(CCC(=O)O)C(=O)O)s3)cc2c(=O)[nH]1 (stereo unspecified) (library stock concentration (final ~1000-fold dilution): 10 mM) gave NF-kB SEAP reporter activity of 1.56

Field NF-kB SEAP reporter activity (entry CC1COC(Nc2ccc3ncnc(Nc4ccc(OCc5nccs5)c(Cl)c4)c3c2)=N1 (stereo unspecified) (library stock concentration (final ~1000-fold dilution): 10 mM) ) reads 0.991

====

- Tested on: RAW-Dual
- assay overview: NF-kB SEAP reporter activity, fold change vs agonist alone; cytotoxicity flag (confluency mask): not cytotoxic; higher = enhanced NF-kB activity
- condition set: agonist: ODN 1826 (TLR9) 0.5 ug/mL
Whole data set: some 2,900 compounds, median “NF-kB SEAP reporter activity, fold change vs agonist alone” near 0.99, cut for the highest 2% near 2.6. This is one part of a sample in which the highest values are shown more often than they occur.
Let's look at some molecules and their measured NF-kB SEAP reporter activity.
Lab note: write the figure by itself, no unit.

According to the records, this molecule CCCS(=O)(=O)Nc1ccc(F)c(C(=O)c2c[nH]c3ncc(-c4ccc(Cl)cc4)cc23)c1F (library stock concentration (final ~1000-fold dilution): 10 mM) displays NF-kB SEAP reporter activity of 0.941

Per the record, c1ccc(-c2n[nH]cc2-c2ccnc3ccccc23)nc1 (library stock concentration (final ~1000-fold dilution): 2 mM) has NF-kB SEAP reporter activity of 1.01

====

Reported NF-kB SEAP reporter activity values for the following compounds.
- System: RAW-Dual
- assay overview: NF-kB SEAP reporter activity, fold change vs agonist alone; higher = enhanced NF-kB activity
- condition set: library stock concentration (final ~1000-fold dilution): 10 mM; cytotoxicity flag (confluency mask): not cytotoxic; agonist: Imiquimod (TLR7) […]
The full ranking holds about 2,900 compounds; the median of “NF-kB SEAP reporter activity, fold change vs agonist alone” is about 0.99, and the highest 2% start at about 2.6. Shown is part of a subset that was picked to be rich in the highest values.
The answer should be written as a number, with no unit following it.

Input CC/C(C)=C/CC[C@](C)(O)C1CC[C@]2(C)C3C[C@@H](O[C@@H]4O[C@H](CO)[C@@H](O)[C@H](O)[C@H]4O[C@@H]4O[C@@H](C)[C@H](O)[C@@H](O)[C@H]4O)C4C(C)(C)C(O)CC[C@]4(C)C3C[C@H](O)C12 (stereo not given in full) . Output NF-kB SEAP reporter activity: 0.952

For reference, reported NF-kB SEAP reporter activity for CS(=O)(=O)O.CS(=O)(=O)O.N=C(N)Nc1ccc(C(=O)Oc2ccc3cc(C(=N)N)ccc3c2)cc1 stands at 1.01

Sample CC(=O)OC1CCC2(C)C(=CCC3C2CCC2(C)C(c4cccnc4)=CCC32)C1 (stereo not given) ; NF-kB SEAP reporter activity observed: 1.12

GET /value?item= CC1=NN(c2ccc(C)c(C)c2)C(=O)/C1=N\Nc1cccc(-c2cccc(C(=O)O)c2)c1O.NCCO.NCCO &field=NF-kB SEAP reporter activity returns 1.57

Looking up NC(=O)c1ccc(OCCCN2CC3CCCC3C2)cc1 (stereo not given) , I found its NF-kB SEAP reporter activity recorded as 0.844
